# Test system: Coxsackievirus B1
# PROTOCOL_TEXT: Antiviral activity against Coxsackievirus B1 Connecticut 5 infected in human Hep2 cells assessed as inhibition of virus-induced cytopathic effect after 48 hrs by neutral red uptake assay
# Assay type: functional, cell-based
# CONDITION: Enterovirus B, Connecticut 5, HEp-2, 48 h; read-out: IC50
pIC50: −log10 of the molar value.
Threshold check on pIC50: at or above 5 gives t, strictly below gives f.

| CHEMICAL_STRING | LABEL_CLASS |
| --- | --- |
| Cc1ccc(C(C)C)c(Oc2ccc([N+](=O)[O-])cc2C#N)c1 | f |
| N#Cc1cc([N+](=O)[O-])ccc1Oc1c(F)cc(F)cc1F | t |
| Cc1c(Br)cc(Br)c(Oc2ccc([N+](=O)[O-])cc2C#N)c1Br | f |
| N#Cc1cc([N+](=O)[O-])ccc1Oc1ccc(F)c(F)c1 | t |
| N#Cc1cc([N+](=O)[O-])ccc1N1C[C@@H]2C[C@H](C1)c1cccc(=O)n1C2 | f |
| N#Cc1cc([N+](=O)[O-])ccc1Oc1ncn(-c2ccccc2)n1 | f |
| N#Cc1cc([N+](=O)[O-])ccc1Oc1ccc(Cl)c(Cl)c1 | t |
| N#Cc1cc([N+](=O)[O-])ccc1Oc1c(F)cccc1F | t |

The values you see were collected from ChEMBL document CHEMBL4043211.
